tested on: F380Y/beta2Delta; assay: modulators of BK channel variants, profiling panel, selectivity assay, cell-based, U2OS BacMam, thallium flux, beta subunits (AID 1259406); conditions: at 30 µM;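 also: initial slope of Thallos dye fluorescence rise after thallium is added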
Activity calls are given as the source filed them.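 The calls were made as follows: active = thallium flux through the channel raised or lowered by more than 3 SD from vehicle-only wells, actives on both sides; inactive = the rest.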
Pick from Yes for active, No for inactive when you respond.

Qu. Could you kindly confirm the outcome this assay logged for O=C1C(CCS(=O)c2ccccc2)C(=O)N(c2ccccc2)N1c1ccccc1 (configuration not stated) ?
Ans. No

Qu. Hi, sorry to bother you, what did the test record for N[C@@H](C(=O)N[C@@H]1C(=O)N2C(C(=O)O)=C(Cl)CS[C@H]12)c1ccccc1 ?
Ans. No

Qu. Per the assay record, what outcome was assigned to NS(=O)(=O)c1cc2c(cc1Cl)NC=NS2(=O)=O ?
Ans. No

Qu. Answer briefly: the call reported for COc1cc(NC(C)CCCN)c2ncccc2c1 (configuration not stated) in this assay.
Ans. Yes

Qu. Assay outcome for Clc1ccc2c(c1)C(N1CCNCC1)=Nc1ccccc1O2 : what was it?
Ans. Yes

Qu. In this assay, the call recorded for COC1=CC(=O)C[C@@H](C)[C@]12Oc1c(Cl)c(OC)cc(OC)c1C2=O was what?
Ans. No

Qu. What outcome does the record of this test show for OC(CCN1CCCC1)(c1ccccc1)C1CCCCC1 (configuration not stated) ?
Ans. Yes

Qu. Assay outcome for Nc1c2c(nc3ccccc13)CCCC2 : what was it?
Ans. No

Qu. Hey, what did the test say about Nc1ccc(S(=O)(=O)c2ccc(N)cc2)cc1 ?
Ans. No

Qu. Dear colleague, could you share the recorded outcome for CN1CCCC(n2nc(Cc3ccc(Cl)cc3)c3ccccc3c2=O)CC1 (configuration not stated) when you have a moment?
Ans. Yes

Qu. Query: recorded result category for CC[C@H](C)C(=O)O[C@H]1C[C@@H](C)C=C2C=C[C@H](C)[C@H](CC[C@@H]3C[C@@H](O)CC(=O)O3)[C@H]21 in this test
Ans. Yes

Qu. What was the test verdict on CC[N+](C)(C)c1cccc(O)c1 ?
Ans. No

Qu. Test call, this molecule: Cc1nc2ccccn2c(=O)c1CCN1CCC(C(=O)c2ccc(F)cc2)CC1
Ans. No

Qu. # lookup: test call for COc1ccccc1N1CCN(CCCNc2cc(=O)n(C)c(=O)n2C)CC1
Ans. No

Qu. Could you check what this test reported for Cc1ccc(Cl)c(Nc2ccccc2C(=O)O)c1Cl ?
Ans. Yes

Qu. # outcome recorded in this test, key = COc1ccc(Cl)cc1C(=O)NCCc1ccc(S(=O)(=O)NC(=O)NC2CCCCC2)cc1
Ans. No

Qu. Each molecule tested received a call. Report the one for CCOc1ccc2ccccc2c1C(=O)N[C@@H]1C(=O)N2[C@@H]1SC(C)(C)[C@@H]2C(=O)O .
Ans. No

Qu. Hello, I am checking results. What call was entered for CN(C)CCC=C1c2ccccc2CCc2ccccc21 ?
Ans. Yes

Qu. Outcome logged for C[C@]12C=CC(=O)C=C1CC[C@@H]1[C@@H]2[C@@H](O)C[C@@]2(C)[C@H]1CC[C@]2(O)C(=O)CO in this assay:
Ans. No

Qu. Hello, I am checking results. What call was entered for CC1(C)O[C@@H]2C[C@H]3[C@@H]4C[C@H](F)C5=CC(=O)C=C[C@]5(C)[C@H]4[C@@H](O)C[C@]3(C)[C@]2(C(=O)CO)O1 ?
Ans. No

Qu. For this molecule, state the assay outcome: c1ccc2[nH]c(-c3cscn3)nc2c1
Ans. No

Qu. Please state the recorded outcome for this molecule: COc1cc2nc(N3CCN(C(=O)c4ccco4)CC3)nc(N)c2cc1OC
Ans. No
